Recorded measurements of MIC, one per entry
- System: Nakaseomyces glabratus
- MEASUREMENT_NOTES: Antifungal activity against Candida glabrata ATCC 90030
- Format: functional
Give just the numeric value; µg/mL need not be written.

// below: answered compounds
COMPOUND	MIC / µg/mL
O=c1cc(-c2ccc(O)c(O)c2)oc2cc(O)cc(O)c12 [LUTEOLIN]	52.7
O=c1c(O)c(-c2cc(O)c(O)c(O)c2)oc2cc(O)cc(O)c12 [MYRICETIN]	6.79
O=c1cc(-c2ccccc2)oc2cc(O)c(O)c(O)c12 [BAICALEIN]	52.7
O=c1c(O[C@@H]2O[C@H](CO)[C@@H](O)[C@H](O)[C@H]2O)c(-c2cc(O)c(O)c(O)c2)oc2cc(O)cc(O)c12	8.53

Read the next record carefully.
stdin: # query: MIC of entry O=c1cc(-c2ccccc2)oc2ccccc12 [FLAVONE]
stdout: 52.7
